- assay-info: soluble fraction after stress (log2 fold change); higher = more stays soluble; pooled small domains, quantitative proteomics;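 further: 20 min heating vs room temperature control held 20 min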
- condition: stress: 75 degC
Lab note: anything with soluble fraction (log2) at or over -2 counts as true (1); the rest go in false (0).

QUERY: Record HMQERQREGFVQQLRGKYSGQVVMRLFPELQGKALGEFMRKFEAQWEDHEAVLAAMEAHEIESRLKVFK ; criterion: soluble fraction (log2) no lower than -2. Met?
RESULT: true (1)

QUERY: Textbook exercise: given the entry HMHIMINPDQLSPEQIQSIRTWAEEGLDLNAIQKRLHEDLNIKLTFMDTRFLLQDLDIRIRQPEPEPEAEQ , state whether its soluble fraction (log2) is greater than or equal to -2.
RESULT: true (1)

QUERY: Given the entry HMQAATGVVTASVLNIRQGPGTNYTKVGSLLKGAQVEIVGQNGAWSKIRLKSGITGWVNSSYLKTST , answer whether its soluble fraction (log2) meets or surpasses -2.
RESULT: true (1)

QUERY: Is soluble fraction (log2) at least -2? Consider HMVDLLDETLIEFYAFANNLIKDLETNSEKYGGMSQFEKELIFNEQITQYQRKLKIDLQDEVG
RESULT: true (1)

QUERY: Could you tell me if the measured soluble fraction (log2) of HMEARYQLREVSLDGLRSGMILNADVLSTDGVLMARKGLEVSGLLRSRLEAFAKMERIEPTFKVLVPIAPP reaches -2 or more?
RESULT: false (0)

QUERY: Would you say HMTKAEVLLDLQQRIISEEFLPGSWLVERDLSSEYGLSRTPIREILNKLVILGLISVQKNRGYQVR shows soluble fraction (log2) at minimum -2?
RESULT: true (1)

QUERY: soluble fraction (log2) >= -2 for HMAGWMPGGTNPAEPGRFAVLMDVDDSDAYKHMFLRWNGHAWEFERTRVLVKMEPSWWMRLPDDPEKP ?
RESULT: false (0)

QUERY: Check if soluble fraction (log2) >= -2 (inclusive). Item: HMKTGIGIVEANGGLRLRSQASTSSDVLSTAHNGDNVVVIRQVGNWYLVNYNLKIGYMHSDYITFKE
RESULT: false (0)

QUERY: Evaluate HMESPELIHILKEAEWQIWQQIQGLPEKQRIAMTLFAMDDLSYQEIADVMKVSVSAIESLLFRARTQLKKY : soluble fraction (log2) at minimum -2?
RESULT: true (1)

QUERY: Entry HMKKMSFKEAFLKYVEIKDNPYNMESVKMLVSLQPLIVKAYSILGVDKVRRLNYVKTKIQDAIINGD : is its soluble fraction (log2) no less than -2?
RESULT: false (0)

QUERY: State whether the measured soluble fraction (log2) reaches -2, counting equality as reaching it, for HMRETELPVTIISAGRILAENLHLAGRDGGWLEAELKRRSLTAEQVLLLTVDAAGTVYLVRKEDL
RESULT: false (0)

QUERY: API: above_or_equal(metric=soluble fraction (log2), cutoff=-2) for item HMATEPLQPRVEVLGSTLATTNGARIVGVYDMSGREVSATQLSKGVYIVKVTNGSVTATQKVFI
RESULT: true (1)

QUERY: Does the reported soluble fraction (log2) for HMSDAQIKASINDLWFKYNLETFAKLNLNVNQGRVLVTGIVQNPEHRLEAIRLVWTVDGVQQVINEIQVAE fall at or above the -2 mark?
RESULT: false (0)

QUERY: Could you tell me if the measured soluble fraction (log2) of HMKEVKRDQVIEAARKLFHQFGFKKVSMDEIAKEAGVTKKTIYMYFESKEELLKYFIQEEISN reaches -2 or more?
RESULT: true (1)

QUERY: Decide: soluble fraction (log2) of HMISDISEIEAIIVEVLKVFPNQLQEYLDGKEKILSFFVGQVMQRTKGRANPSLVNEILKEKIKN >= -2?
RESULT: true (1)

QUERY: Threshold query (soluble fraction (log2) >= -2) on HMQAKNGTVTGSVVNVRGGAGTQYAVKGKASRGTKVTILGQQSSWLNVRLDNGVTGWIHADYVQISE
RESULT: true (1)

QUERY: Check this sequence for soluble fraction (log2) at or above -2: HMNNLKTKELSKIGYTNDKARSLVISIIPKHFKYHSKSEIIELLTNIKNKPEDYVSDEILGKIAETFMEKI
RESULT: true (1)

Reference source: the domain aggregation screens of Martell et al. (2025)
